Assay: Bioavailability in rabbit at 105 mg/kg, ig up to 24 hrs by HPLC analysis
Assay type: ADME, organism-based, Oryctolagus cuniculus
Conditions: in vivo, po
Measure Name: bioavailability (%)

• CSc1nc2[n-]nc([N+](=O)[O-])c(=O)n2n1.O.O.[Na+] = 12.5

###

Test: Toxicity against ig dosed rabbit
Format: organism-based, Oryctolagus cuniculus
Conditions: in vivo, po
Measure Name: LD50 (mg/kg)

- CSc1nc2[n-]nc([N+](=O)[O-])c(=O)n2n1.O.O.[Na+]: 2200

###

Assay: Cmax in rabbit at 105 mg/kg, ig up to 24 hrs by HPLC analysis
Type: ADME, organism-based, Oryctolagus cuniculus
Set-up: dose 105 mg/kg, route intragastric
Details: in vivo, po
Measure Name: Cmax (ng/mL)

• CSc1nc2[n-]nc([N+](=O)[O-])c(=O)n2n1.O.O.[Na+] [TRIAZAVIRINE] = 1100
• CSc1nc2[nH]nc(N)c(=O)n2n1 = 140
